# reported pKd; entries follow
Molecular target: T1, DLG3_3, Q92796
T1 sequence (Q92796 374-475, limits assumed, looked up): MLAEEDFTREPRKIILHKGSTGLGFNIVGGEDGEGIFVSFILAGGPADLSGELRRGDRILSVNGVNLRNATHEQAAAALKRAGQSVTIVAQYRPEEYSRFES
Experiment: holdup assay
Parameters: key: below the threshold = too weak to quantify, mostly under pKd 3.1 to 4
Settings: plain residues with an end cap or a label only (N-terminal biotin on a linker: ttds)

binder: SVWLRKETRV [CYSLTR2, Q9NS75]
pKd: 5.34
//
binder: STLTIFETAL [ABCC4, O15439]
pKd: 3.83
